Source listed as paper PMC4827638.

assayMethodText: H2O2 radical scavenging activity
Type: biochemical
conditionDescription: 405 nm; triplicate
Measured IC50 of H2O2 radical scavenging activity, listed per entry.
Report only the number, with the unit µg/mL understood.

Below are worked cases with known answers.
* CC1=C(O)C(=O)C(C)(O)S1 (stereo not shown) | 12.60
* COc1ccc(O)c(C(C)(C)C)c1 [BHA, butylated hydroxyanisole] | 22.47
* Cc1c(C)c2c(c(C)c1O)CC[C@@](C)(CCC[C@H](C)CCC[C@H](C)CCCC(C)C)O2 | 39.40

Return the recorded IC50 of H2O2 radical scavenging activity value; entry: O=C1O[C@H]([C@@H](O)CO)C(O)=C1O
42.42
